- assay-remarks: adipocyte viability effects, profiling panel, cell-based, 3T3-L1 adipocytes, calcein-AM fluorescence, 48 h, basal (AID 1163); also: test concentration not given here
- condition-set: 3T3-L1 adipocytes viability, higher = more signal
property-label: z-score

Request: Return reported z-score; argument: `[N-]=[N+]=NCc1ccccc1[C@H]1OC(c2ccc(OCCCO)cc2)=N[C@@]1(CCS(=O)(=O)c1ccccc1)C(N)=O`
Result: 0.0036

Request: Give the measured z-score of CC(C)(C)N1CC=CC23O[C@@H]4C=CCOC(=O)[C@@H]4[C@H]2C(=O)N(CCCO)[C@@H]3C1=O (stereo partly drawn) .
Result: 1.55

Request: Look up z-score: `COC(=O)[C@@]1(Cc2ccccc2)[C@H]2c3cc(C(=O)N4CCCC4)n(C[C@H](O)CO)c3C[C@H]2CN1C(=O)c1ccccc1`
Result: -0.154

Request: Returns the measured z-score for the input molecule. Input: `C=C(C(=O)CC[C@H](OC(C)=O)c1cccc(OCCO)c1)C(C)C`
Result: 0.8

Request: Looking for the measured z-score of `CC(=O)NCCCC[C@@H]1NC(=O)[C@@H]2C[C@H](C(=O)O)[C@H](c3ccc(O)cc3)N2C1=O` , can you help?
Result: 0.384

Request: Look at this molecule and give its reported z-score. CC(C)N1CC=CC23O[C@@H]4C=CCOC(=O)[C@@H]4[C@H]2C(=O)N(C(C)CO)[C@@H]3C1=O (stereo partly drawn)
Result: -0.153

Request: If you can, please state the reported z-score value of CC(C)C(CO)N1C(=O)[C@]2(C)C3C(=O)OCCC/C=C\[C@H]3OC23C=CCN(c2ccc(Cl)cc2)C(=O)[C@@H]13 (stereo partly drawn) .
Result: -0.199

Request: Param item = `CC(C)N1C(=O)[C@@]2(c3ccc([N+](=O)[O-])cc3)CC(=O)N(C3CCCCC3)[C@@H]2c2ccc(CO)cc21` ; retrieve measured z-score.
Result: -0.0435

----------
- assay-remarks: small-molecule microarray binders of probe aCHRDL2, primary screen, biochemical, biotinylated probe, 635/667 nm fluorescence (AID 1100)
- condition-set: higher = more signal
property-label: composite z-score
Could you keep your reply to the number by itself?

Illustrative cases are given below, each with its answer.
molecule=CC(C)(C)OC(=O)CC[C@]1(C(=O)O)N=C(c2ccc(OCCCO)cc2)O[C@H]1c1ccccc1 readout_value=0.542
molecule=CCCNC(=O)[C@@]1(c2ccc([N+](=O)[O-])cc2)CC(=O)N(C2CCCCC2)[C@@H]1c1ccc(CO)cc1I readout_value=0.796
molecule=CC(C)CN1C(=O)[C@@]2(c3ccc([N+](=O)[O-])cc3)CC(=O)N(CC34CC5CC(CC(C5)C3)C4)[C@@H]2c2ccc(CO)cc21 readout_value=0.807

Request: I would be grateful if you could share the reported composite z-score for CN1C(=O)C2C(C1=O)C1C=C(c3ccc(CO)cc3)C2C(c2cccs2)N1Cc1cccc(OC(F)(F)F)c1 (centres undefined) .
Result: -0.137

----------
- measurement-target: Calmodulin-1 (Homo sapiens)
- assay-remarks: CALM1 binders on microarrays, EGTA buffer, profiling panel, biochemical, small-molecule microarray, Cy5-labelled CALM1 (AID 1111);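 also: labelled calmodulin applied in Tris saline Tween buffer holding calcium plus EGTA and DTT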
- condition-set: Cy5-CALM1 binding fluorescence, higher = more signal
Threshold rule: composite z-score greater than or equal to 0.6 is True; below that, False.

compound=COCCCNC(=O)[C@@]1(Sc2ccc(C)cc2)CC(=O)N(C2Cc3ccccc3C2)[C@@H]1c1ccc(CO)cc1I measurement_target="Calmodulin-1 (Homo sapiens)" category=False
compound="C[C@@H](OCc1ccccc1)C1NC(=O)[C@@]23C(=O)N[C@@H](Cc4ccccc4)C2[C@H](C)[C@@]2(C)O[C@H]2C3/C=C/C/C=C\\CNC(=O)CNC1=O (stereo partly drawn)" measurement_target="Calmodulin-1 (Homo sapiens)" category=False
compound="CN1C(=O)C2C(C1=O)C1C=C(c3ccc(CO)cc3)C2C(c2cccs2)N1Cc1cccc(OC(F)(F)F)c1 (stereo not drawn)" measurement_target="Calmodulin-1 (Homo sapiens)" category=True
compound="COc1ccc(C(O)C2C=CC3C(=O)N(c4ccccc4)C(=O)C3N2Nc2ccccc2)cc1OCc1ccccc1 (stereo not drawn)" measurement_target="Calmodulin-1 (Homo sapiens)" category=False
compound=COC(=O)[C@H](Cc1ccccc1)N1CC(/C=C/C2CC2)=C[C@@H]1[C@@H](O)Cc1ccccc1 measurement_target="Calmodulin-1 (Homo sapiens)" category=False

Request: Dear colleague, could you confirm whether CC(C)c1ccc(NN2C(C(O)c3ccco3)C=CC3C(=O)N(c4ccccc4)C(=O)C32)cc1 (stereo not drawn) has composite z-score at or above 0.6?
Result: True

Request: Hello, I need to know if COC(=O)C1(Cc2ccccc2)C=C2C(=C(c3ccccc3)C(=O)C2C)CN1 (stereo not drawn) has measured composite z-score not below 0.6. Thanks!
Result: True

Request: Check the entry CC1CC/C=C\[C@H]2OC34C=CCN(C(C)C)C(=O)[C@H]3N(CCCCCO)C(=O)[C@@H]4C2C(=O)O1 (stereo partly drawn) : does composite z-score equal or exceed 0.6?
Result: False
